- experimental.target: UniProt:Q92769
- Sequence (Q92769 whole entry, species assumed): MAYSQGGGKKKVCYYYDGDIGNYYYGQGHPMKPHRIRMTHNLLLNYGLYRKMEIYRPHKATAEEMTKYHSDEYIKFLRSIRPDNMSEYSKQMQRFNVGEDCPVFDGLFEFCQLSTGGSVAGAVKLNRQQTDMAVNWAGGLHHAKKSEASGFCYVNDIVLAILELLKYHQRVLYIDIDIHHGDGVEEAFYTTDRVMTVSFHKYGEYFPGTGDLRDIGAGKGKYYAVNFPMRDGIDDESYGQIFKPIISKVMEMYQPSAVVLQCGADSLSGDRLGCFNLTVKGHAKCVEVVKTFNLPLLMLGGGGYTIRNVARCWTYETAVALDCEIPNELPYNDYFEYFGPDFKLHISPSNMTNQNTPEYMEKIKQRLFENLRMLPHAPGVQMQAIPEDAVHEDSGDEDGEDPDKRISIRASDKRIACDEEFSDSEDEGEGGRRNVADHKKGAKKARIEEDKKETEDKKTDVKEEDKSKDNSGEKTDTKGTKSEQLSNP
- protocol: HDAC enzyme inhibitory assay (fluorescence), HDAC2
- Assay type: biochemical
recorded.metric: IC50 (nM)
Numbers only, in nM.

CC(C)(C)OC(=O)NCCCC1NC(=O)C2(C)CSC(=N2)c2csc(n2)CNC(=O)CC(C=CCCS)OC1=O (stereo not drawn); 1.4
CC(C)(C)OC(=O)NCCC1NC(=O)C2(C)CSC(=N2)c2csc(n2)CNC(=O)CC(C=CCCS)OC1=O (stereo not drawn); 3.1

Please state recorded IC50 (tested on UniProt:Q92769) of CC12CSC(=N1)c1csc(n1)CNC(=O)CC(C=CCCS)OC(=O)C(Cc1c[nH]cn1)NC2=O (stereo not drawn)
1.4
